Measured values drawn from ChEMBL document CHEMBL3585274 for this set.

Measured selectivity ratio accompanies every entry in the list below.
Assay: Selectivity index, CC50 for african green monkey Vero cells to EC50 for chikungunya virus Indian ocean strain 899
Format: toxicity, cell-based
Settings: read-out: Ratio CC50/EC50
Reply with the value as a number alone.

Answered cases to consult:
compound=CCCCCCCCCCCCCC(=O)O[C@@H]1[C@@H](C)[C@@]2(O)[C@@H](C=C(C=O)C[C@]3(O)C(=O)C(C)=C[C@@H]23)[C@@H]2C(C)(C)[C@]12OC(C)=O numericvalue=5.9
compound="C/C=C(/C)C(=O)O[C@H]1C(C)=C[C@]23C(=O)[C@@H](C=C(CO)[C@@H](O)[C@]12O)[C@H]1[C@@H](C[C@H]3C)C1(C)C [INGENOL MEBUTATE]" numericvalue=2.3
compound=CCCCCCCCCCCCCC(=O)O[C@@H]1[C@@H](C)[C@@]2(O)[C@@H](C=C(CO)C[C@@]3(O)C(=O)C(C)=C[C@@H]23)[C@@H]2C(C)(C)[C@]12OC(C)=O numericvalue=1.9
compound=CCCCCCCCCCCCCC(=O)O[C@@]12[C@H](O)[C@@H](C)[C@@]3(O)[C@@H](C=C(CO)C[C@]4(O)C(=O)C(C)=C[C@@H]34)[C@@H]1C2(C)C numericvalue=9
compound=CC(=O)O[C@@H]1[C@@H](C)[C@@]2(O)[C@@H](C=C(CO)C[C@]3(O)C(=O)C(C)=C[C@@H]23)[C@@H]2C(C)(C)[C@]12O numericvalue=0.8
compound=CCCC(=O)O[C@@H]1[C@@H](C)[C@@]2(O)[C@@H](C=C(C=O)C[C@]3(O)C(=O)C(C)=C[C@@H]23)[C@@H]2C(C)(C)[C@]12OC(=O)CCC numericvalue=2.7
compound="CC(=O)O[C@@]12C[C@@H](C)[C@@]3(O)[C@@H](C=C(CO)C[C@]4(O)C(=O)C(C)=C[C@@H]34)[C@@H]1C2(C)C [PROSTRATIN]" numericvalue=22.8
compound=COc1cc(CC(=O)OCC2=C[C@H]3[C@@H]4C(C)(C)[C@]4(OC(C)=O)[C@H](OC(=O)Cc4ccccc4)[C@@H](C)[C@]3(O)[C@@H]3C=C(C)C(=O)[C@@]3(O)C2)ccc1O numericvalue=14.2

Prompt: Look up selectivity ratio for this compound: `CCCCCCCCCC(=O)O[C@@]12[C@H](O)[C@@H](C)[C@@]3(O)[C@@H](C=C(CO)C[C@]4(O)C(=O)C(C)=C[C@@H]34)[C@@H]1C2(C)C`
Response: 9.7

Prompt: CC1=C[C@]23C(=O)[C@@H](C=C(CO)[C@@H](O)[C@]2(O)[C@H]1O)[C@H]1[C@@H](C[C@H]3C)C1(C)C [INGENOL] , same question.
Response: 4.8

Prompt: Try the compound `CC(=O)O[C@@H]1[C@@H](C)[C@@]2(O)[C@@H](C=C(CO)C[C@]3(O)C(=O)C(C)=C[C@@H]23)[C@@H]2C(C)(C)[C@]12OC(C)=O`
Response: 4.2

Prompt: Another compound: `CCCCCCCCCC(=O)O[C@@H]1[C@@H](C)[C@@]2(O)[C@@H](C=C(CO)C[C@@]3(O)C(=O)C(C)=C[C@@H]23)[C@@H]2C(C)(C)[C@]12OC(=O)CCCCCCCCC`
Response: 2.2

Prompt: Would you mind doing `CCCCCC(=O)O[C@@H]1[C@@H](C)[C@@]2(O)[C@@H](C=C(CO)C[C@]3(O)C(=O)C(C)=C[C@@H]23)[C@@H]2C(C)(C)[C@]12OC(=O)CCCCC` as well?
Response: 1.8

Prompt: Ok, now C=C(C)[C@]12C[C@@H](C)[C@@]34O[C@](Cc5ccccc5)(O[C@@H]1[C@@H]3C=C(COC(=O)Cc1ccc(O)c(OC)c1)C[C@]1(O)C(=O)C(C)=C[C@@H]41)O2 [RESINIFERATOXIN]
Response: 2.3

Prompt: // next record `CC(=O)OCC1=C[C@H]2[C@@H]3C(C)(C)[C@]3(OC(C)=O)[C@H](O)[C@@H](C)[C@]2(O)[C@@H]2C=C(C)C(=O)[C@@]2(O)C1`
Response: 1.7

Prompt: Another compound to check: CCCCCCCCCCCCCC(=O)O[C@@H]1[C@@H](C)[C@@]2(O)[C@@H](C=C(CO)C[C@]3(O)C(=O)C(C)=C[C@@H]23)[C@@H]2C(C)(C)[C@]12OC(C)=O [PHORBOL MYRISTATE ACETATE]
Response: 1960

Prompt: Could you do the same for `CC(=O)OCC1=C[C@H]2[C@@H]3C(C)(C)[C@]3(OC(C)=O)[C@H](OC(C)=O)[C@@H](C)[C@]2(O)[C@@H]2C=C(C)C(=O)[C@@]2(O)C1` , please?
Response: 2.2

Prompt: Same lookup for `CCCCCCCCCC(=O)O[C@@H]1[C@@H](C)[C@@]2(O)[C@@H](C=C(CO)C[C@]3(O)C(=O)C(C)=C[C@@H]23)[C@@H]2C(C)(C)[C@]12OC(=O)CCCCCCCCC` , please.
Response: 686

Prompt: Further, for `CCCCCCCCCC(=O)O[C@@H]1[C@@H](C)[C@@]2(O)[C@@H](C=C(CO)C[C@]3(O)C(=O)C(C)=C[C@@H]23)[C@@H]2C(C)(C)[C@]12O` ?
Response: 1.5

Prompt: Same lookup for `CCCC(=O)O[C@@]12[C@H](O)[C@@H](C)[C@@]3(O)[C@@H](C=C(CO)C[C@]4(O)C(=O)C(C)=C[C@@H]34)[C@@H]1C2(C)C` , please.
Response: 12.3

----------
System: Human immunodeficiency virus 1
Assay: Antiviral activity against HIV1 3B infected in MT4 cells assessed as cell viability after 5 days by MTT assay
Format: functional, organism-based
Conditions: Human immunodeficiency virus 1, 3B, MT4, 120 h
experimentalReadout: log10(EC50) (log10 of the value in µM)
Units before log transform: µM; reported quantity: EC50; transform: log10.

Below, 4 molecules whose answers are already recorded.
molecule="C/C=C(/C)C(=O)O[C@H]1C(C)=C[C@]23C(=O)[C@@H](C=C(CO)[C@@H](O)[C@]12O)[C@H]1[C@@H](C[C@H]3C)C1(C)C [INGENOL MEBUTATE]" experimentalreadout=log10(EC50) numericvalue=-1.77
molecule=Cc1cn([C@H]2C[C@H](N=[N+]=[N-])[C@@H](CO)O2)c(=O)[nH]c1=O experimentalreadout=log10(EC50) numericvalue=0.85
molecule=CCCCCCCCCCCCCC(=O)O[C@@]12[C@H](O)[C@@H](C)[C@@]3(O)[C@@H](C=C(CO)C[C@]4(O)C(=O)C(C)=C[C@@H]34)[C@@H]1C2(C)C experimentalreadout=log10(EC50) numericvalue=-0.62
molecule=CC(=O)O[C@@H]1[C@@H](C)[C@@]2(O)[C@@H](C=C(CO)C[C@]3(O)C(=O)C(C)=C[C@@H]23)[C@@H]2C(C)(C)[C@]12OC(C)=O experimentalreadout=log10(EC50) numericvalue=0.68

Prompt: State the recorded log10(EC50) for this entry: `CCCC(=O)O[C@@H]1[C@@H](C)[C@@]2(O)[C@@H](C=C(CO)C[C@]3(O)C(=O)C(C)=C[C@@H]23)[C@@H]2C(C)(C)[C@]12OC(=O)CCC`
Response: -1.10

Prompt: Also need `CC1=C[C@]23C(=O)[C@@H](C=C(CO)[C@@H](O)[C@]2(O)[C@H]1O)[C@H]1[C@@H](C[C@H]3C)C1(C)C` , thanks.
Response: 2.32

Prompt: Now the same for `CCCC(=O)O[C@@]12[C@H](O)[C@@H](C)[C@@]3(O)[C@@H](C=C(CO)C[C@]4(O)C(=O)C(C)=C[C@@H]34)[C@@H]1C2(C)C`
Response: 2.09

Prompt: Also, `CCCCCCCCCC(=O)O[C@@H]1[C@@H](C)[C@@]2(O)[C@@H](C=C(CO)C[C@]3(O)C(=O)C(C)=C[C@@H]23)[C@@H]2C(C)(C)[C@]12O` please.
Response: 0.69

Prompt: // repeat for `CCCCCCCCCC(=O)O[C@@]12[C@H](O)[C@@H](C)[C@@]3(O)[C@@H](C=C(CO)C[C@]4(O)C(=O)C(C)=C[C@@H]34)[C@@H]1C2(C)C` and report
Response: -0.05

Prompt: Entry `CCCCCCCCC(=O)O[C@@H]1[C@@H](C)[C@@]2(O)[C@@H](C=C(COC(=O)Cc3ccc(O)c(OC)c3)C[C@]3(O)C(=O)C(C)=C[C@@H]23)[C@@H]2C(C)(C)[C@]12OC(=O)CCCCCCCC` please
Response: -1.44

Prompt: Check `CC(=O)O[C@@]12C[C@@H](C)[C@@]3(O)[C@@H](C=C(CO)C[C@]4(O)C(=O)C(C)=C[C@@H]34)[C@@H]1C2(C)C` too.
Response: 0.28
